In this section we review reported Intrinsic activity values for a set of compounds.
TARGET_DESC: Beta-1 adrenergic receptor (Cavia porcellus) (UniProt B0FL73)
Sequence (B0FL73 1-467): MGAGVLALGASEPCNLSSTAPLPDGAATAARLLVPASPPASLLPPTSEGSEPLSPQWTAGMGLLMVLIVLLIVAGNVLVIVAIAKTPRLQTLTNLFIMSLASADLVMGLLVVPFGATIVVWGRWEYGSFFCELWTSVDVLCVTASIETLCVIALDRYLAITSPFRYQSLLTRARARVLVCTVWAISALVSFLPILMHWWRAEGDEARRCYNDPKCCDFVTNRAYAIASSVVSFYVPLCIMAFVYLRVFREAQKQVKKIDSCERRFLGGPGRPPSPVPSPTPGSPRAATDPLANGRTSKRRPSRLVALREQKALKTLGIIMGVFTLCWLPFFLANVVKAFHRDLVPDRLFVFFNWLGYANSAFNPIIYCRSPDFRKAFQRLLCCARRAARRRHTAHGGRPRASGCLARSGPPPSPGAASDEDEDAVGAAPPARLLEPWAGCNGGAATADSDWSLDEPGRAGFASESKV
ASSAY_DETAILS: Intrinsic activity at adrenergic beta-1 receptor in spontaneously beating guinea pig atria assessed as acceleration in contraction relative to isoproterenol
Please respond with the number in % and leave the unit unwritten.

Answered examples (3):
COc1ccc([C@H](Cc2ccccc2)NC[C@@H](O)Cc2ccc(O)c(NS(C)(=O)=O)c2)cc1OC = 75
COc1cccc([C@@H](Cc2ccccc2)NC[C@H](O)Cc2ccc(O)c(NS(C)(=O)=O)c2)c1 = 0
COc1ccc([C@H](Cc2ccccc2)NC[C@H](O)Cc2ccc(O)c(NS(C)(=O)=O)c2)cc1OC = 48

Bench note, Beta-1 adrenergic receptor (Cavia porcellus) (UniProt B0FL73): entry `COc1ccc([C@@H](Cc2ccccc2)NC[C@H](O)Cc2ccc(O)c(NS(C)(=O)=O)c2)cc1` , its Intrinsic activity = 0

Bench note, Beta-1 adrenergic receptor (Cavia porcellus) (UniProt B0FL73): entry `COc1ccc([C@@H](Cc2ccccc2)NC[C@H](O)Cc2ccc(O)c(NS(C)(=O)=O)c2)cc1OC` , its Intrinsic activity = 0

Bench note, Beta-1 adrenergic receptor (Cavia porcellus) (UniProt B0FL73): entry `CS(=O)(=O)Nc1cc(C[C@H](O)CN[C@H](Cc2ccccc2)c2ccc(OC(F)F)c(OC(F)F)c2)ccc1O` , its Intrinsic activity = 0

Bench note, Beta-1 adrenergic receptor (Cavia porcellus) (UniProt B0FL73): entry `COc1ccc([C@@H](Cc2ccccc2)NC[C@@H](O)Cc2ccc(O)c(NS(C)(=O)=O)c2)cc1OC` , its Intrinsic activity = 60

====

In this section we review reported Ratio values for a set of compounds.
Tested on: African green monkey
ASSAY_DETAILS: Ratio of serum potassium concentration to ED50 for lipolysis in African green monkey
Assay type: functional, Chlorocebus sabaeus

Answered examples (2):
CCOP(=O)(OCC)c1ccc(NC(=O)[C@@](C)(NC[C@H](O)c2ccc(O)c(NS(C)(=O)=O)c2)c2ccc(OC)cc2)cc1 = >25
CS(=O)(=O)Nc1cc([C@@H](O)CN[C@H](Cc2ccccc2)c2ccc(OC(F)F)cc2)ccc1O = >25

Bench note, African green monkey: entry `CS(=O)(=O)Nc1cc([C@@H](O)CNC(c2ccc(OC(F)F)cc2)c2ccc(OC(F)F)cc2)ccc1O` , its Ratio = >60

Bench note, African green monkey: entry `COc1ccc([C@@H](Cc2ccccc2)NC[C@@H](O)Cc2ccc(O)c(NS(C)(=O)=O)c2)cc1OC` , its Ratio = >55

====

Organism: Homo sapiens
ASSAY_DETAILS: Selectivity ratio of Ki for human adrenergic beta-1 receptor to Ki for human adrenergic beta-3 receptor
Entries whose Ratio Ki is below 40 take true; entries at or above 40 take false.

Below are worked cases with known answers.
COc1ccc([C@@H](Cc2cccc(Cl)c2)NC[C@@H](O)Cc2ccc(O)c(NS(C)(=O)=O)c2)cc1OC = false
COc1ccc(CCNCC(O)Cc2ccc(O)c(NS(C)(=O)=O)c2)cc1OC (configuration not stated) = true
CS(=O)(=O)Nc1cc(C[C@@H](O)CN[C@@H](CCc2ccccc2)c2ccc(OC(F)F)c(OC(F)F)c2)ccc1O = true
COc1ccc([C@@H](Cc2ccc(Cl)cc2)NC[C@@H](O)Cc2ccc(O)c(NS(C)(=O)=O)c2)cc1OC = true
COc1ccc(CNC[C@H](O)CCc2ccc(O)c(NS(C)(=O)=O)c2)cc1 = true

Could you please tell me whether Ratio Ki recorded for `COc1ccc([C@H](CCc2ccccc2)NC[C@H](O)Cc2ccc(O)c(NS(C)(=O)=O)c2)cc1` is less than 40? true

Could you please tell me whether Ratio Ki recorded for `COc1ccc([C@@H](Cc2ccccc2Cl)NC[C@@H](O)Cc2ccc(O)c(NS(C)(=O)=O)c2)cc1OC` is less than 40? false

Could you please tell me whether Ratio Ki recorded for `CS(=O)(=O)Nc1cc(OC[C@@H](O)CN)ccc1O` is less than 40? true

Could you please tell me whether Ratio Ki recorded for `CS(=O)(=O)Nc1cc(C[C@H](O)CNC(c2ccc(OC(F)F)cc2)c2ccc(OC(F)F)cc2)ccc1O` is less than 40? true

Could you please tell me whether Ratio Ki recorded for `COc1ccc(CC(Cc2ccc(OC)c(OC)c2)NC[C@@H](O)Cc2ccc(O)c(NS(C)(=O)=O)c2)cc1OC` is less than 40? true

Could you please tell me whether Ratio Ki recorded for `CS(=O)(=O)Nc1cc(OC[C@@H](O)CN[C@H](Cc2ccccc2)c2ccc(OC(F)F)cc2)ccc1O` is less than 40? false

Could you please tell me whether Ratio Ki recorded for `CS(=O)(=O)Nc1cc(CC[C@@H](O)CN[C@H](Cc2ccccc2)c2ccc(OC(F)F)cc2)ccc1O` is less than 40? true

Could you please tell me whether Ratio Ki recorded for `COc1ccc([C@@H](Cc2ccccc2)NC[C@H](O)COc2ccc(O)c(NS(C)(=O)=O)c2)cc1OC` is less than 40? false

Could you please tell me whether Ratio Ki recorded for `COc1ccc([C@H](CCc2ccc(Cl)cc2)NC[C@H](O)Cc2ccc(O)c(NS(C)(=O)=O)c2)cc1OC` is less than 40? false

Could you please tell me whether Ratio Ki recorded for `COc1ccc([C@H](CCc2cccc(Cl)c2)NC[C@H](O)Cc2ccc(O)c(NS(C)(=O)=O)c2)cc1OC` is less than 40? true

Could you please tell me whether Ratio Ki recorded for `COc1ccc([C@@H](Cc2ccccc2)NC[C@H](O)CCc2ccc(O)c(NS(C)(=O)=O)c2)cc1OC` is less than 40? false

====

What follows is a record of Ki for Beta-3 adrenergic receptor (Homo sapiens, UniProt P13945).
Please respond with the number in nM and leave the unit unwritten.

CS(=O)(=O)Nc1cc(CC[C@@H](O)CN[C@H](Cc2ccccc2)c2ccc(OC(F)F)cc2)ccc1O = 880
COc1ccc([C@@H](Cc2ccc(Cl)cc2)NC[C@@H](O)Cc2ccc(O)c(NS(C)(=O)=O)c2)cc1OC = 24
COc1ccc([C@@H](Cc2ccccc2Cl)NC[C@@H](O)Cc2ccc(O)c(NS(C)(=O)=O)c2)cc1OC = 7
CS(=O)(=O)Nc1cc([C@@H](O)CN)ccc1O = 17000
COc1ccc(C(C)(C)NC[C@H](O)c2ccc(O)c(NS(C)(=O)=O)c2F)cc1 = 200

Ki reported for this molecule `COc1ccc([C@@H](Cc2ccccc2)NC[C@@H](O)Cc2ccc(O)c(NS(C)(=O)=O)c2)cc1OC` : 6

Ki reported for this molecule `COc1ccc([C@H](Cc2ccccc2)NC[C@@H](O)Cc2ccc(O)c(NS(C)(=O)=O)c2)cc1OC` : 9

Ki reported for this molecule `COc1ccc([C@H](Cc2ccccc2)NC[C@H](O)Cc2ccc(O)c(NS(C)(=O)=O)c2)cc1OC` : 150

Ki reported for this molecule `CS(=O)(=O)Nc1cc(C[C@H](O)CNC(c2ccc(OC(F)F)cc2)c2ccc(OC(F)F)cc2)ccc1O` : 340

Ki reported for this molecule `COc1cccc([C@H](CCc2ccccc2)NC[C@H](O)Cc2ccc(O)c(NS(C)(=O)=O)c2)c1` : 390

====

What follows is a record of pKi for Beta-1 adrenergic receptor (Homo sapiens).
When answering, recall that pKi equals minus log10 of the concentration in mol/L, and write that number alone.

COc1ccc([C@H](CCc2cccc(Cl)c2)NC[C@H](O)Cc2ccc(O)c(NS(C)(=O)=O)c2)cc1OC = 6.38
COc1ccc([C@H](CCc2ccccc2)NC[C@H](O)Cc2ccc(O)c(NS(C)(=O)=O)c2)cc1 = 6.14
COc1cccc([C@H](CCc2ccccc2)NC[C@H](O)Cc2ccc(O)c(NS(C)(=O)=O)c2)c1 = 6.24

Shifting focus to the compound that follows.
pKi reported for this compound `COc1ccc([C@@H](Cc2ccccc2)NC[C@@H](O)Cc2ccc(O)c(NS(C)(=O)=O)c2)cc1` : 5.22

====

In this section we review reported Intrinsic activity values for a set of compounds.
TARGET_DESC: Beta-3 adrenergic receptor (Homo sapiens, UniProt P13945)
ASSAY_DETAILS: Intrinsic activity at human cloned adrenergic beta3 receptor expressed in CHO cells assessed as cAMP accumulation relative to isoproterenol
Assay type: functional, cell-based
Sequence (P13945 whole entry, looked up): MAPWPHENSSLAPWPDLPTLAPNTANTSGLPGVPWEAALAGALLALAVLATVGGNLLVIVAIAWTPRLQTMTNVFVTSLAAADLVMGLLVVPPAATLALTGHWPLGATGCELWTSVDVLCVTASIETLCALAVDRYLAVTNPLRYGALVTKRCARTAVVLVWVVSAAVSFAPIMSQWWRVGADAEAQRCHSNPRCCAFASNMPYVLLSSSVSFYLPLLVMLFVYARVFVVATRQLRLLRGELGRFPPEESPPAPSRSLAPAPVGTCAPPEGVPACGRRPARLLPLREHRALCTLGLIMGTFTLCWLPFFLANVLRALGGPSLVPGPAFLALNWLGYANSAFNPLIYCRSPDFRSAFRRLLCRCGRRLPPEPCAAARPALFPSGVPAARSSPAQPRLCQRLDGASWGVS
Please respond with the number in % and leave the unit unwritten.

Answered examples (5):
COc1cccc([C@@H](Cc2ccccc2)NC[C@@H](O)Cc2ccc(O)c(NS(C)(=O)=O)c2)c1 = 44
COc1ccc(CCNCC(O)Cc2ccc(O)c(NS(C)(=O)=O)c2)cc1OC (stereo unspecified) = 35
COc1ccc(CNC[C@H](O)CCc2ccc(O)c(NS(C)(=O)=O)c2)cc1 = 42
CS(=O)(=O)Nc1c(O)ccc([C@@H](O)CN)c1F = 0
COc1ccc([C@H](CCc2cccc(Cl)c2)NC[C@H](O)Cc2ccc(O)c(NS(C)(=O)=O)c2)cc1OC = 57

Intrinsic activity reported for this compound `COc1ccc([C@H](CCc2ccccc2Cl)NC[C@H](O)Cc2ccc(O)c(NS(C)(=O)=O)c2)cc1OC` : 73

Intrinsic activity reported for this compound `COc1ccc([C@@H](Cc2ccccc2)NC[C@@H](O)Cc2ccc(O)c(NS(C)(=O)=O)c2)cc1OC` : 86

Intrinsic activity reported for this compound `COc1ccc([C@@H](Cc2ccc(Cl)cc2)NC[C@@H](O)Cc2ccc(O)c(NS(C)(=O)=O)c2)cc1OC` : 68

Intrinsic activity reported for this compound `COc1ccc(C(C)(C)NC[C@H](O)c2ccc(O)c(NS(C)(=O)=O)c2)cc1` : 86

Intrinsic activity reported for this compound `COc1ccc([C@H](Cc2ccccc2)NC[C@H](O)Cc2ccc(O)c(NS(C)(=O)=O)c2)cc1OC` : 70

Cited source: ChEMBL document CHEMBL1140016
